# Subject Of Test: RSV F protein of subtype A (strain A2) on recombinant mKate-RSV virus (Respiratory syncytial virus subtype A …, UniProt P03420 26-574)
# Procedure Summary: cell-based or functional assay

Binder: ADI-18920 (antibody, V domains shown, full-length IgG from yeast; also called Antibody Number 274; Ab # 274) VH: EVQLLESGGGVVQPGRSLRLSCAASGFTFSSYAMHWVRQTPDKGLEWVALISDDGRNEYYADSVQGRFTISRDKSKNTLHLEMNSLRAEDTAVYYCAKVRNEAWELLGNDDALDVWGQGTMVTVSS VL: QSVLTQPPSVSAAPGQKVTISCSGTSFNIGSNYVSWYQLLPGTAPKLLIFDNYKRPSGIPDRFSGSWSGTSATLAISGLQTGDEAEYFCGTWDTSLRAGVFGGGTKLTVL
Neut IC50 (µg/ml) subtype A [µg/mL]: 0.041

Binder: ADI-18933 (antibody, V domains shown, full-length IgG from yeast) VH: QVQLVESGAEVKKPGASVKVACTASGYAFTNYNIHWVRLAPGQGLEWMAIINPGSGGTDYSEKFQGRLTLTSDTSTSTVYMTLGSLRYEDTAFYYCARRGYPDSGSYPLDYWGQGTLVTVSS VL: DIVMTQSPSSLSASLGDRVTITCRAGRSIATYLNWYQQKPGKAPKLLIYGASSLQSGVPSRFSGSGSGTHFTLTISSLQPEDFATYYCQQSYIRPITFGGGTKVEIK
Neut IC50 (µg/ml) subtype A [µg/mL]: 0.075

Binder: ADI-18909 (antibody, V domains shown, full-length IgG from yeast; also called Antibody Number 264; Ab # 264) VH: QVQLQESGPGLVKPSQTLSLTCTVSGRFLNSGDYYWSWIRQSPGKGLEWLGYIHHSGNTYYNPSLKSRLTISLDMSKNQFSLKLSSVTAADTAVYYCARDLGKPLWDGHYYYGVDVWGQGTTVTVSS VL: DIVMTQSPGTLSLSPGERATLSCRTSQNVNSNYLAWYQHKPGQAPRLLIYGASSRVTGIPDRFSGSGSGTDFTLTITRVESEDFAVYYCQVYSSSPPITFGQGTKVEIK
Neut IC50 (µg/ml) subtype A [µg/mL]: 0.11
